tested on: cultured cells of Taxus baccata LINN; assay: Growth rate and taxane yield, 21-day shake culture of Taxus baccata cells with heavy metal compound, amine, antiethylene agent or Ethrel added; type: cell-based; settings: 10^−5 M added at start, 21 days
The entries below are paired with their reported total yield of taxane.
Express it in mg/L; write the number only.

total yield of taxane reading for O=S([O-])([O-])=S.[Ag+].[Ag+] [silver thiosulfate, [Ag(S2O3)2]^3−] : 13.18

###

test system: cultured cells of Taxus baccata LINN; assay: Taxane-type diterpene yield and cell yield, shake culture of Taxus baccata cells with a jasmonic acid (or jasmone) added; type: cell-based; conditions: 100 μM added on 14th day, 7 more days
parameter: yield of baccatin III
State the result as a value with its unit after it.

yield of baccatin III reading for COC(=O)C[C@H]1CCC(=O)[C@H]1C/C=C\CCO [methyl tuberonate] : 12.2 mg/L

###

test system: cultured cells of Taxus baccata LINN; assay: Growth rate and taxane yield, 21-day shake culture of Taxus baccata cells with heavy metal compound, amine, antiethylene agent or Ethrel added; format: cell-based; settings: 10^−3 M added at start, 21 days
The entries below are paired with their reported yield of baccatin III.
State the result as a value with its unit after it.

Example molecules with recorded yield of baccatin III:
molecule | parameter | value_observed
O=[N+]([O-])[O-].[Ag+] [silver nitrate] | yield of baccatin III | 3.01 mg/L
NCCCNCCCCNCCCN | yield of baccatin III | 0.76 mg/L
NCCCCNCCCN | yield of baccatin III | 2.63 mg/L
[Cl][Co][Cl] [cobalt chloride] | yield of baccatin III | 1.57 mg/L
O=S([O-])([O-])=S.[Ag+].[Ag+] [silver thiosulfate, [Ag(S2O3)2]^3−] | yield of baccatin III | 27.90 mg/L

// molecule `NCCCCN` , assay cultured cells of Taxus baccata LINN, yield of baccatin III value: 1.95 mg/L

###

tested on: cultured cells of Taxus baccata LINN; test: Taxane-type diterpene yield and cell yield, shake culture of Taxus baccata cells with a jasmonic acid (or jasmone) added; assay type: cell-based; settings: 250 μM added on 14th day, 7 more days
parameter: cell yield (g/L)
Express it in g/L; write the number only.

Example compounds with recorded cell yield:
compound | units_of_measure | cell yield
CC/C=C\CC1C(=O)CCC1CC(=O)OC (stereo not shown) [methyl jasmonate] | g/L | 10.0
CC/C=C\C[C@H]1[C@@H](CC(=O)OC)CC[C@@H]1O [methyl cucurbate] | g/L | 9.6
COC(=O)C[C@H]1CCC(=O)[C@H]1C/C=C\CCO [methyl tuberonate] | g/L | 12.5

Now for another entry.
cell yield reading for CC/C=C\C[C@H]1C(=O)CC[C@@H]1CC(=O)O [jasmonic acid] : 10.1

###

System: cultured cells of Taxus baccata LINN
Test: Growth rate and taxane yield, 21-day shake culture of Taxus baccata cells with heavy metal compound, amine, antiethylene agent or Ethrel added
Assay type: cell-based
Details: 10^−1 M added at start, 21 days
Method: One gram (fresh weight) of the callus was inoculated to an Erlenmeyer flask containing 20 ml of liquid Woody Plant Medium to which the above-mentioned component was added to give the same concentration and shake culture was carried out with a rotary shaker (amplification of 25 mm, 100 rpm) and the callus was subcultured in every 21 days to accelerate the growth rate thereof. Then shake culture was carried out at 25° C. for 21 days. […]
parameter: yield of baccatin III

Example compounds with recorded yield of baccatin III:
compound | parameter | value_observed
O=S([O-])([O-])=S.[Ag+].[Ag+] [silver thiosulfate, [Ag(S2O3)2]^3−] | yield of baccatin III | 0.26 mg/L
NCCCCN [putrescine] | yield of baccatin III | 0.80 mg/L
[Cl][Co][Cl] [cobalt chloride] | yield of baccatin III | 0.11 mg/L
NCCCCNCCCN [spermidine] | yield of baccatin III | 0.41 mg/L

Now for another entry.
yield of baccatin III reading for NCCCNCCCCNCCCN [spermin] : 0.39 mg/L

###

test system: cultured cells of Taxus baccata LINN; assay: Growth rate and taxane yield, 21-day shake culture of Taxus baccata cells with heavy metal compound, amine, antiethylene agent or Ethrel added; assay type: cell-based; details: 10^−5 M added at start, 21 days
parameter: growth rate
State the result as a value with its unit after it.

Example molecules with recorded growth rate:
molecule | growth rate
NCCCCN | 3.1 times
O=S([O-])([O-])=S.[Ag+].[Ag+] [silver thiosulfate, [Ag(S2O3)2]^3−] | 2.7 times
NCCCNCCCCNCCCN | 2.1 times

growth rate reading for [Cl][Co][Cl] [cobalt chloride] : 3.2 times

growth rate reading for `NCCCCNCCCN` : 3.1 times

###

The entries below are paired with their reported yield of baccatin III.
system: cultured cells of Taxus baccata LINN; test: Growth rate and taxane yield, 21-day shake culture of Taxus baccata cells with heavy metal compound, amine, antiethylene agent or Ethrel added; assay type: cell-based; conditions: 10^−9 M added at start, 21 days
Express it in mg/L; write the number only.

compound | assayed_target | units_of_measure | yield of baccatin III
NCCCCNCCCN | cultured cells of Taxus baccata LINN | mg/L | 0.31
NCCCCN | cultured cells of Taxus baccata LINN | mg/L | 0.36
NCCCNCCCCNCCCN | cultured cells of Taxus baccata LINN | mg/L | 0.50
O=S([O-])([O-])=S.[Ag+].[Ag+] [silver thiosulfate, [Ag(S2O3)2]^3−] | cultured cells of Taxus baccata LINN | mg/L | 0.20

Now for another entry.
// compound [Cl][Co][Cl] [cobalt chloride] , assay cultured cells of Taxus baccata LINN, yield of baccatin III value: 0.15

###

system: cultured cells of Taxus baccata LINN; assay: Taxane-type diterpene yield and cell yield, shake culture of Taxus baccata cells with a jasmonic acid (or jasmone) added; type: cell-based; settings: 100 μM added on 14th day, 7 more days
The entries below are paired with their reported yield of cephalomannine.
State the result as a value with its unit after it.

Example compounds with recorded yield of cephalomannine:
compound | value_observed
CC/C=C\C[C@H]1[C@@H](CC(=O)OC)CC[C@@H]1O [methyl cucurbate] | 4.4 mg/L
CC/C=C\C[C@H]1C(=O)CC[C@@H]1CC(=O)O [jasmonic acid] | 3.0 mg/L
CC/C=C\CC1C(=O)CCC1CC(=O)OC (stereo not shown) [methyl jasmonate] | 2.0 mg/L

Now for another entry.
// compound COC(=O)C[C@H]1CCC(=O)[C@H]1C/C=C\CCO [methyl tuberonate] , assay cultured cells of Taxus baccata LINN, yield of cephalomannine value: 2.4 mg/L

###

system: cultured cells of Taxus baccata LINN; assay: Growth rate and taxane yield, 21-day shake culture of Taxus baccata cells with heavy metal compound, amine, antiethylene agent or Ethrel added; assay type: cell-based; settings: 10^−7 M added at start, 21 days
parameter: growth rate (times)
Express it in times; write the number only.

Example compounds with recorded growth rate:
compound | assayed_target | growth rate / times
NCCCCN | cultured cells of Taxus baccata LINN | 2.7
[Cl][Co][Cl] [cobalt chloride] | cultured cells of Taxus baccata LINN | 2.6
NCCCNCCCCNCCCN | cultured cells of Taxus baccata LINN | 2.4
O=S([O-])([O-])=S.[Ag+].[Ag+] [silver thiosulfate, [Ag(S2O3)2]^3−] | cultured cells of Taxus baccata LINN | 2.7

Now for another entry.
growth rate reading for `NCCCCNCCCN` : 3.1

###

The entries below are paired with their reported yield of cephalomannine.
system: cultured cells of Taxus baccata LINN; test: Taxane-type diterpene yield and cell yield, shake culture of Taxus baccata cells with a jasmonic acid (or jasmone) added; type: cell-based; details: 10 μM added on 14th day, 7 more days
Express it in mg/L; write the number only.

yield of cephalomannine reading for CC/C=C\CC1C(=O)CCC1CC(=O)OC (stereo not shown) [methyl jasmonate] : 2.1

yield of cephalomannine reading for COC(=O)C[C@H]1CCC(=O)[C@H]1C/C=C\CCO [methyl tuberonate] : 2.2

yield of cephalomannine reading for CC/C=C\C[C@H]1[C@@H](CC(=O)OC)CC[C@@H]1O [methyl cucurbate] : 4.0

yield of cephalomannine reading for CC/C=C\C[C@H]1C(=O)CC[C@@H]1CC(=O)O [jasmonic acid] : 2.6

###

tested on: cultured cells of Taxus baccata LINN; experiment: Growth rate and taxane yield, 21-day shake culture of Taxus baccata cells with heavy metal compound, amine, antiethylene agent or Ethrel added; format: cell-based; settings: 10^−4 M added at start, 21 days
parameter: total yield of taxane (mg/L)
Express it in mg/L; write the number only.

compound | value_observed
NCCCCNCCCN [spermidine] | 22.23

// compound O=S([O-])([O-])=S.[Ag+].[Ag+] [silver thiosulfate, [Ag(S2O3)2]^3−] , assay cultured cells of Taxus baccata LINN, total yield of taxane value: 27.26

// compound NCCCCN [putrescine] , assay cultured cells of Taxus baccata LINN, total yield of taxane value: 22.65

// compound NCCCNCCCCNCCCN [spermin] , assay cultured cells of Taxus baccata LINN, total yield of taxane value: 11.96

// compound [Cl][Co][Cl] [cobalt chloride] , assay cultured cells of Taxus baccata LINN, total yield of taxane value: 10.02
